# ASSAY COMMENT: Half life in Wistar rat at 25 mg/kg, po
# Format: ADME, organism-based
# Design: dose 25 mg/kg, route oral
# RUN PARAMETERS: in vivo
OBSERVABLE: half-life (h)
// units = h; emit number, no label

>  <COMPOUND>
CCO[C@@H]1OC(=O)CC1NC(=O)[C@@H]1CCCN2C(=O)CC[C@H](NC(=O)c3nccc4ccccc34)C(=O)N12 (some centres undefined)

>  <OBSERVED VALUE>
0.87

$$$$

INPUT: Can you look up the measured half-life of CCOC1OC(=O)C[C@@H]1NC(=O)[C@@H](CC(=O)NCCc1cccc2ncccc12)C(C)C (some centres undefined) for me?
OUTPUT: 0.87

INPUT: What do you get for CCOC1OC(=O)C[C@@H]1NC(=O)[C@@H](CC(=O)NCCc1c(C)[nH]c2ccccc12)C(C)C (some centres undefined) ?
OUTPUT: 1.27

INPUT: Check CCOC1OC(=O)C[C@@H]1NC(=O)[C@@H](CC(=O)NCCn1c(C)nc2ccccc21)C(C)C (some centres undefined) too.
OUTPUT: 1.6
